# measurementTarget: Bombesin Receptor (Mus musculus, UniProt P21729)
# Construct: Pancreata from mice were chopped at 350 μm with a tissue chopper and pooled; from tissue; host or cells: chopped mouse pancreas
# Sequence (P21729 whole entry): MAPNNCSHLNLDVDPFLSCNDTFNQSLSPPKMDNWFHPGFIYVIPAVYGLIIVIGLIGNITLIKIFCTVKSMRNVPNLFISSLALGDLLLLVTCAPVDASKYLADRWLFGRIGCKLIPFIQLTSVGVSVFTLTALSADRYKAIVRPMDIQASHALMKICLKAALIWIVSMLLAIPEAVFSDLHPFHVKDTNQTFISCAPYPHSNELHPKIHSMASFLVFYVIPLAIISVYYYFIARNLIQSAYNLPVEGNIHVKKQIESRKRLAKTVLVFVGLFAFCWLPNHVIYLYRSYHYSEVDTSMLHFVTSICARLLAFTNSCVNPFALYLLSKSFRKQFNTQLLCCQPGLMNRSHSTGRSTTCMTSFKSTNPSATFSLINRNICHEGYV
# experiment: Phosphatidylinositol turnover in chopped mouse pancreas
# Assay type: cell-based
# measurementConditions: antagonist activity, referenced to the stimulation produced by 100 nM GRP
Where a SMILES comes first, the peptide text is derived from it. [ ]: non-standard residue; d: D form. The star is where a group is joined. Pheψ(CH2S)LeuNH2 = CC(C)C[C@H](SC[C@H](Cc1ccccc1)N*)C(N)=O; X1 = CC(C)C[C@@H](C(N)=O)N(C)C[C@H](Cc1ccccc1)N*; pGlu = O=C1CC[C@@H](C(=O)O)N1; Lauroyl = CCCCCCCCCCCC(=O)*
Each entry below carries its reported PI Turnover % Inhibition.
Response body: numeric value in %, unit text excluded.

Please review the entries below; each comes with its answer.
{"columns": ["compound", "measurementTarget", "endpoint", "valueUnit", "measured"],
 "data": [
  ["CCCCCCCCCCCC(=O)N[C@@H](CCC(N)=O)C(=O)N[C@@H](Cc1c[nH]c2ccccc12)C(=O)N[C@@H](C)C(=O)N[C@H](C(=O)N[C@H](C)C(=O)N[C@@H](Cc1c[nH]cn1)C(=O)N[C@@H](CC(C)C)C(N)=O)C(C)C [Lauryl[D-Ala^11]bombesin(7-13)amide] (Lauroyl-QWAV[dA]HL-NH2)", "Bombesin Receptor (Mus musculus, UniProt P21729)", "PI Turnover % Inhibition", "%", 53],
  ["CC(C)C[C@@H](C(N)=O)N(C)C[C@H](Cc1ccccc1)NC(=O)[C@H](Cc1c[nH]cn1)NC(=O)CNC(=O)[C@@H](NC(=O)[C@H](C)NC(=O)[C@H](Cc1c[nH]c2ccccc12)NC(=O)[C@H](CCC(N)=O)NC(=O)[C@@H]1CCC(=O)N1)C(C)C [[Phe^8 .psi.[CH2 N(CH3)]Leu^9]litorin] ([pGlu]QWAVGH-X1)", "Bombesin Receptor (Mus musculus, UniProt P21729)", "PI Turnover % Inhibition", "%", -16]
]}

Next compound, PI Turnover % Inhibition to be filled in.
Give reported PI Turnover % Inhibition value for CC(C)C[C@H](NC(=O)[C@H](CCCNC(=N)N)NC(=O)[C@H](CCC(N)=O)NC(=O)[C@@H]1CCC(=O)N1)C(=O)NCC(=O)N[C@@H](CC(N)=O)C(=O)N[C@@H](CCC(N)=O)C(=O)N[C@@H](Cc1c[nH]c2ccccc12)C(=O)N[C@@H](C)C(=O)N[C@H](C(=O)NCC(=O)N[C@@H](Cc1c[nH]cn1)C(=O)N[C@H](CS[C@@H](CC(C)C)C(N)=O)Cc1ccccc1)C(C)C [[Phe^13 .psi.[CH2 S]Leu^14 bombesin] ([pGlu]QRLGNQWAVGH-{Pheψ(CH2S)LeuNH2})
54

----------
# measurementTarget: Bombesin Receptor (Mus musculus)
# Construct: Pancreata from mice were chopped at 350 μm with a tissue chopper and pooled; from tissue; host or cells: chopped mouse pancreas
# experiment: Phosphatidylinositol turnover in chopped mouse pancreas
# Type: cell-based
# measurementConditions: antagonist activity, referenced to the stimulation produced by 100 nM GRP
Where a SMILES comes first, the peptide text is derived from it. [ ]: non-standard residue; d: D form.
endpoint: PI Turnover % Inhibition (%)
Response body: numeric value in %, unit text excluded.

{"columns": ["molecule", "endpoint", "measured"],
 "data": [
  ["CC(C)C[C@H](SC[C@H](Cc1ccccc1)NC(=O)[C@H](Cc1c[nH]cn1)NC(=O)CNC(=O)[C@@H](NC(=O)[C@H](C)NC(=O)[C@H](Cc1c[nH]c2ccccc12)NC(=O)[C@H](CCC(N)=O)NC(=O)[C@@H]1CCC(=O)N1)C(C)C)C(N)=O [[Phe^8 .psi.[CH2 S]Leu^9]litorin]", "PI Turnover % Inhibition", 42],
  ["CC(=O)N[C@@H](CCC(N)=O)C(=O)N[C@@H](Cc1c[nH]c2ccccc12)C(=O)N[C@@H](C)C(=O)N[C@H](C(=O)N[C@H](C)C(=O)N[C@@H](Cc1c[nH]cn1)C(=O)N[C@@H](CC(C)C)C(N)=O)C(C)C [Acetyl[D-Ala^11]bombesin(7-13)amide] (Ac-QWAV[dA]HL-NH2)", "PI Turnover % Inhibition", 24]
]}

Next molecule, PI Turnover % Inhibition to be filled in.
Give reported PI Turnover % Inhibition value for CC(C)C[C@@H](C(N)=O)[S+]([O-])C[C@H](Cc1ccccc1)NC(=O)[C@H](Cc1c[nH]cn1)NC(=O)CNC(=O)[C@@H](NC(=O)[C@H](C)NC(=O)[C@H](Cc1c[nH]c2ccccc12)NC(=O)[C@H](CCC(N)=O)NC(=O)[C@@H]1CCC(=O)N1)C(C)C (single isomer, unassigned) [[Phe^8 .psi.[CH2 S(O)]Leu^9 ]litorin II]
83
